Provenance of the data: paper PMC10810434

# System: MDA-MB-231
# protocol.details: In vitro antiproliferative MTT assay on MDA-MB-231
# Assay type: cell-based, human
# particulars: Homo sapiens, MDA-MB-231, up to 72 hours, mean of two independent measurements with three replicates each, read-out: Calculated IC50 ± SEM, MDA-MB-231
property: IC50 (nM)
Please respond with the number in nM and leave the unit unwritten.

{"columns": ["compound", "tested.system", "IC50 / nM"],
 "data": [
  ["COC1(c2cc(=O)c3c(O)cc(O)cc3o2)C=CC(=O)C=C1 [Compound 7]", "MDA-MB-231", 2230],
  ["CCCCOC1(c2cc(=O)c3c(O)cc(O)cc3o2)C=CC(=O)C=C1 [Compound 9]", "MDA-MB-231", 820],
  ["CC1=CC(=O)C(C(C)C)=C(CCC(=O)Oc2cc(O)c3c(=O)cc(C4(O)C=CC(=O)C=C4)oc3c2)C1=O [Compound 14]", "MDA-MB-231", 520]
]}

Task item: Give IC50 (MDA-MB-231) of the following compound: COC1(c2cc(=O)c3c(O)cc(OC(=O)CCC4=C(C)C(=O)C=C(C(C)C)C4=O)cc3o2)C=CC(=O)C=C1 [Compound 11]
Reply: 2250

Task item: What IC50 appears in the records for this compound with MDA-MB-231? CCOC1(c2cc(=O)c3c(O)cc(O)cc3o2)C=CC(=O)C=C1 [Compound 8]
Reply: 1220

Task item: Form field - read-out: IC50; system: MDA-MB-231; submitted item: CC1=C(CCC(=O)Oc2cc(O)c3c(=O)cc(C4(O)C=CC(=O)C=C4)oc3c2)C(=O)C(C(C)C)=CC1=O [Compound 10]
Reply: 1270

###

// reported pIC50 for each item listed
# Tested on: HeLa
# protocol.details: In vitro antiproliferative MTT assay on HeLa
# Type: cell-based, human
# particulars: Homo sapiens, HeLa, up to 72 hours, mean of two independent measurements with three replicates each, read-out: Calculated IC50 ± SEM, HeLa
Reminder that pIC50 means the negative base-10 logarithm of the concentration expressed in mol/L.

Observe how each entry below is paired with its result.
{"columns": ["entry.smiles", "tested.system", "pIC50"],
 "data": [
  ["CCCCOC1(c2cc(=O)c3c(O)cc(O)cc3o2)C=CC(=O)C=C1", "HeLa", 5.73],
  ["CCOC1(c2cc(=O)c3c(O)cc(O)cc3o2)C=CC(=O)C=C1", "HeLa", 5.55]
]}

Task item: Please look up its pIC50: COC1(c2cc(=O)c3c(O)cc(O)cc3o2)C=CC(=O)C=C1
Reply: 5.26

###

Measured IC50 values are reported for all entries that follow.
# System: U-87 glioblastoma cells
# protocol.details: In vitro antiproliferative MTT assay on U-87
# Assay type: cell-based, human
# particulars: Homo sapiens; Table 3; U-87 glioblastoma; read-out: Calculated IC50 ± SEM, U-87 (Table 3)
Write down the numeric answer in nM and omit the unit.

{"columns": ["compound", "tested.system", "IC50 / nM"],
 "data": [
  ["Cn1nnc2c(C(N)=O)ncn2c1=O [TMZ, temozolomide, reference compound]", "U-87 glioblastoma cells", 388000]
]}

Task item: So what does the record say about IC50 for CCCCOC1(c2cc(=O)c3c(O)cc(O)cc3o2)C=CC(=O)C=C1 ?
Reply: 1500

Task item: Request the reported IC50 associated with O=C1C=CC(O)(c2cc(=O)c3c(O)cc(O)cc3o2)C=C1
Reply: 1730
